The reported numbers originate from patent US20260144788A1.

# measurement.target: UniProt:Q06124
# Sequence (Q06124 1-593): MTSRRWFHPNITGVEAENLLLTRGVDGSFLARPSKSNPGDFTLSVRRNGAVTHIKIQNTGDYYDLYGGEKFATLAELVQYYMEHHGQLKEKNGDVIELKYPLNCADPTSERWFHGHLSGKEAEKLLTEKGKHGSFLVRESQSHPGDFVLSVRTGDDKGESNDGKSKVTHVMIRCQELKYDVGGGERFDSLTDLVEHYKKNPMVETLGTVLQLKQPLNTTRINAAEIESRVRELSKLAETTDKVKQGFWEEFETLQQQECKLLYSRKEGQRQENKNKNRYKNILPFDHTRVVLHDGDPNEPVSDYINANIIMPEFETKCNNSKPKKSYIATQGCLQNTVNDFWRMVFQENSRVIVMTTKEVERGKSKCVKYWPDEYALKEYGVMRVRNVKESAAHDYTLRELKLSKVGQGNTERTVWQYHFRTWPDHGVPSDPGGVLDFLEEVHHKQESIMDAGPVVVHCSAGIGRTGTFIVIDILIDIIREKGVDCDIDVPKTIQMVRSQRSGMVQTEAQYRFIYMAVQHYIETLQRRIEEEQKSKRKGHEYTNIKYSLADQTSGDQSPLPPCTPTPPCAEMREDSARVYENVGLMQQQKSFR
# assay.method.text: Measurement of SHP2 protein degradation in NCI-H358 cells (western blotting)
# Format: cell-based
# Parameters: endogenous in cells; host or cells: NCI-H358
# particulars: 0.1 μM, harvested after 24 hours
# Procedure: H358 cells were treated with the synthesized Example compounds, and the amount of SHP2 protein present in the cells was measured using western blotting detection. The protocol for the experiment using H358 cells is as follows. […] [Cell lysis and sample preparation] […] After shaking for 10 seconds with a SYNERGY H1 microplate reader from BioTek, the absorbance was measured at 562 nm. The protein was quantified using the measured value to make a sample, which was then incubated at 70° C. for 10 minutes. […]
measured.endpoint: SHP2% degradation (%)
Provide the reading as a plain figure in %.

SHP2% degradation for UniProt:Q06124 with input CC(=O)N[C@H](C(=O)N1C[C@H](O)C[C@H]1C(=O)NCc1ccc(-c2scnc2C)cc1O[C@H]1CC[C@H](C(=O)N2CCC(c3nccc(Sc4cnc(N5CCC(C)(CN)CC5)cn4)c3Cl)CC2)CC1)C(C)(C)C equals 50.6

SHP2% degradation for UniProt:Q06124 with input Cc1cc(C(C(=O)N2C[C@H](O)C[C@H]2C(=O)NCc2ccc(-c3scnc3C)cc2O[C@H]2CC[C@H](C(=O)N3CC(Nc4cccc(Sc5cnc(N6CCC(C)(CN)CC6)cn5)c4Cl)C3)CC2)C(C)C)on1 (stereo partly drawn) [Example 114] equals 88.1

SHP2% degradation for UniProt:Q06124 with input Cc1ncsc1-c1ccc(CNC(=O)[C@@H]2C[C@@H](O)CN2C(=O)[C@H](C(C)C)n2cc(C3CC3)nn2)c(OC2CCN(C(=O)C3CCN(c4nccc(Sc5cnc(N6CCC7(CC6)CO[C@@H](C)[C@H]7N)cn5)c4Cl)CC3)CC2)c1 equals 99.7

SHP2% degradation for UniProt:Q06124 with input CC(=O)N[C@H](C(=O)N1C[C@H](O)C[C@H]1C(=O)NCc1ccc(-c2scnc2C)cc1OC1CCN(C(=O)C2CCN(c3cccc(Sc4cnc(N5CCC(C)(N)CC5)c(CO)n4)c3Cl)CC2)CC1)C(C)(C)C equals 99.9

SHP2% degradation for UniProt:Q06124 with input CC(=O)N[C@H](C(=O)N1C[C@H](O)C[C@H]1C(=O)NCc1ccc(-c2scnc2C)cc1O[C@H]1CC[C@H](C(=O)N2CC(Nc3cccc(Sc4cnc(N5CCC6(CC5)Cc5ncccc5[C@H]6N)cn4)c3Cl)C2)CC1)C(C)(C)C equals 99.4

SHP2% degradation for UniProt:Q06124 with input CC(=O)N[C@H](C(=O)N1C[C@H](O)C[C@H]1C(=O)NCc1ccc(-c2scnc2C)cc1O[C@H]1CC[C@H](C(=O)N2CCC(Nc3nccc(Sc4cnc(N5CCC6(CC5)CO[C@@H](C)[C@H]6N)cn4)c3Cl)CC2)CC1)C(C)(C)C equals 95.9

SHP2% degradation for UniProt:Q06124 with input Cc1ncsc1-c1ccc(CNC(=O)[C@@H]2C[C@@H](O)CN2C(=O)[C@H](C(C)C)n2cc(C3CC3)nn2)c(OC2CCN(C(=O)C3CCN(c4nccc(Sc5cnc(N6CCC7(CC6)CO[C@@H](C)[C@H]7N)c(CO)n5)c4Cl)CC3)CC2)c1 equals 97.3

SHP2% degradation for UniProt:Q06124 with input CC(=O)N[C@H](C(=O)N1C[C@H](O)C[C@H]1C(=O)NCc1ccc(-c2scnc2C)cc1OC1CCN(C(=O)C2CCN(c3nccc(Sc4cnc(N5CCC(C)(CN)CC5)cn4)c3Cl)CC2)CC1)C(C)C equals 99.2

SHP2% degradation for UniProt:Q06124 with input CC(=O)N[C@H](C(=O)N1C[C@H](O)C[C@H]1C(=O)NCc1ccc(-c2scnc2C)cc1O[C@H]1CC[C@H](C(=O)N2CC(Nc3nccc(Sc4cnc(N5CCC(C)(N)CC5)cn4)c3Cl)C2)CC1)C(C)(C)C equals 98.1
